system: 454973-116-R2-J3-PDC spheroids, percent test/control viability; test: Anticancer human tumor 454973-116-R2-J3-PDC patient-derived pancreatic carcinoma cell line growth inhibition [CLK]; conditions: second compound 1 µM; first compound 0.00949 µM; spheroids with HUVEC and MSC; active = viability on the fitted dose curve at most 10% of control; inactive = the rest
Outcome codes: t = active, f = inactive

>>> assigned_class("NC(=O)C(=Cn1cnc(-c2cc(C(F)(F)F)cc(C(F)(F)F)c2)n1)c1cncnc1 + CNC(=O)c1ccc(Nc2nc(OC3CCCC3)c3c(-c4ccc5nc(C)oc5c4)c[nH]c3n2)c(OC)c1")
"f"
>>> assigned_class("CC(C)CC(NC(=O)C(Cc1ccccc1)NC(=O)c1cnccn1)B(O)O (stereo unspecified) + CN1CCN(c2cc(C(=O)Nc3cc4cc(-c5cnn(C)c5)ccc4cn3)ccn2)CC1")
"t"
>>> assigned_class("CC(C)CC(NC(=O)C(Cc1ccccc1)NC(=O)c1cnccn1)B(O)O (stereo unspecified) + CNC(=O)c1ccc(Nc2nc(OC3CCCC3)c3c(-c4ccc5nc(C)oc5c4)c[nH]c3n2)c(OC)c1")
"t"
>>> assigned_class("NC(=O)C(=Cn1cnc(-c2cc(C(F)(F)F)cc(C(F)(F)F)c2)n1)c1cncnc1 + CN1CCN(c2cc(C(=O)Nc3cc4cc(-c5cnn(C)c5)ccc4cn3)ccn2)CC1")
"t"
>>> assigned_class("C=CC(=O)Nc1cc(Nc2nccc(-c3cn(C)c4ccccc34)n2)c(OC)cc1N(C)CCN(C)C + CN1CCN(c2cc(C(=O)Nc3cc4cc(-c5cnn(C)c5)ccc4cn3)ccn2)CC1")
"t"
>>> assigned_class("C=CC(=O)Nc1cc(Nc2nccc(-c3cn(C)c4ccccc34)n2)c(OC)cc1N(C)CCN(C)C + CNC(=O)c1ccc(Nc2nc(OC3CCCC3)c3c(-c4ccc5nc(C)oc5c4)c[nH]c3n2)c(OC)c1")
"f"

----------
system: 454973-116-R2-J3-PDC spheroids, percent test/control viability; assay: Anticancer human tumor 454973-116-R2-J3-PDC cell line growth inhibition [CLK]; conditions: second compound 0.1 µM; first compound 3.16 µM; active compounds read low; spheroids with HUVEC and MSC;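 also: spheroids exposed to compounds for 7 days before readout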
Recorded viability, T/C values for a group of compounds are listed next.
readout: viability, T/C (%)

>>> numeric_result("CC(Nc1ccc2c(c1)OCCn1cc(N3C(=O)OCC3C(F)F)nc1-2)C(N)=O (stereo not drawn) + CN1CCN(c2cc(C(=O)Nc3cc4cc(-c5cnn(C)c5)ccc4cn3)ccn2)CC1")
34
>>> numeric_result("C=CC(=O)N1CCN(c2nc(=O)n(-c3c(C)ccnc3C(C)C)c3nc(-c4c(O)cccc4F)c(F)cc23)C(C)C1 (stereo not drawn) + CNC(=O)c1ccc(Nc2nc(OC3CCCC3)c3c(-c4ccc5nc(C)oc5c4)c[nH]c3n2)c(OC)c1")
113
>>> numeric_result("CC(Nc1ccc2c(c1)OCCn1cc(N3C(=O)OCC3C(F)F)nc1-2)C(N)=O (stereo not drawn) + CNC(=O)c1ccc(Nc2nc(OC3CCCC3)c3c(-c4ccc5nc(C)oc5c4)c[nH]c3n2)c(OC)c1")
58.6

----------
tested on: 454973-116-R2-J3-PDC spheroids, percent test/control viability; assay: Anticancer human tumor 454973-116-R2-J3-PDC cell line growth inhibition [CLK]; conditions: second compound 0.1 µM; first compound 3.16 µM; active compounds read low; spheroids with HUVEC and MSC;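 also: spheroids exposed to compounds for 7 days before readout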
Recorded viability, T/C values for a group of molecules are listed next.
readout: viability, T/C (%)

>>> numeric_result("CC1COCCN1c1cc(C2(S(C)(=N)=O)CC2)nc(-c2ccnc3[nH]ccc23)n1 (stereo not drawn) + CNC(=O)c1ccc(Nc2nc(OC3CCCC3)c3c(-c4ccc5nc(C)oc5c4)c[nH]c3n2)c(OC)c1")
84.4
>>> numeric_result("C=CC(=O)N1CCN(c2nc(=O)n(-c3c(C)ccnc3C(C)C)c3nc(-c4c(O)cccc4F)c(F)cc23)C(C)C1 (stereo not drawn) + CN1CCN(c2cc(C(=O)Nc3cc4cc(-c5cnn(C)c5)ccc4cn3)ccn2)CC1")
98.4
>>> numeric_result("O=C(c1cc(Cc2n[nH]c(=O)c3ccccc23)ccc1F)N1CCN(C(=O)C2CC2)CC1 + CN1CCN(c2cc(C(=O)Nc3cc4cc(-c5cnn(C)c5)ccc4cn3)ccn2)CC1")
62.5
